# assay target: CAPRIN1
# test description: pooled miR-30 sensor sort-seq; sequence = guide strand; further: reference of the scale not given here
# details: shRNA
Collected sensor-assay potency score (higher = more potent) values appear next to each entry.
assay readout: sensor-assay potency score (higher = more potent)

chain_sequence=TTGATAGCCAGAGTAATCCCGG test_result=-0.0464
chain_sequence=TACAGGAACTTGATTAGGCTGA test_result=0.0825
chain_sequence=TTTCTTGTCGATCACCCCGAGA test_result=-1.14
chain_sequence=TTTACATTGATTCCACTGCTAT test_result=-0.568
chain_sequence=TTTCTGAATATCTTGACTTAGT test_result=-0.78
chain_sequence=TAGATAATAACTCTTCTGGTAA test_result=-0.812
chain_sequence=TAACATATTATGGTACACTGGC test_result=0.119
chain_sequence=TATTGTTTTCTGAATATCTTGA test_result=0.459

###

# assay target: ZDHHC4
# test description: pooled miR-30 sensor sort-seq; sequence = guide strand
# details: shRNA
assay readout: sensor-assay potency score (higher = more potent)

chain_sequence=TACAGGACAAACAACAGGTAGC assay_target=ZDHHC4 test_result=-0.502
chain_sequence=TAGAAAGATCTCTTGAAGGTTG assay_target=ZDHHC4 test_result=0.193
chain_sequence=TTGGAAACATCACTTCATCAAA assay_target=ZDHHC4 test_result=-1.15
chain_sequence=TTATACAGGAAAATATCTGTGC assay_target=ZDHHC4 test_result=0.584
chain_sequence=TACCACTCGTTAGTAGTCTGGT assay_target=ZDHHC4 test_result=-0.0383
chain_sequence=TTGCTTTTGTTATAATGCCAGG assay_target=ZDHHC4 test_result=-1.32

###

# assay target: PSMB6
# test description: pooled miR-30 sensor sort-seq; sequence = guide strand
# details: shRNA
I would appreciate it if you labelled entries Condition met when sensor-assay potency score (higher = more potent) is -0.5 or higher, otherwise Condition not met.

chain_sequence=TAGGTAGCATCAACATAGCCAT class_name="Condition not met"
chain_sequence=AATGCTGTGGAAACCGAGCTGG class_name="Condition met"
chain_sequence=TTCAATGCTGTGGAAACCGAGC class_name="Condition not met"
chain_sequence=TATCGGTAACACATCTCCTTAA class_name="Condition not met"
chain_sequence=TTGCAGACACTCTTCCTTGGTC class_name="Condition met"
chain_sequence=TTGTCAGTCACTCGATTGGCGA class_name="Condition not met"
chain_sequence=TCGTGAATAGGTGTCAGCTTGT class_name="Condition met"

###

Known sensor-assay potency score (higher = more potent) of a selection of sequences
# assay target: TELO2
# test description: pooled miR-30 sensor sort-seq; sequence = guide strand
# details: shRNA
assay readout: sensor-assay potency score (higher = more potent)

chain_sequence=TTCTGGGTCATCACAAACTGGG test_result=-0.844
chain_sequence=TTGCCCAGCAGCGTCTCCCGGA test_result=-1.12
chain_sequence=TAGGCATCGATGTGGAAGCGAA test_result=-1.36
chain_sequence=AAACTCATCATCGCTGTCCAGG test_result=-1.32
chain_sequence=TGTAAGAACAGAAGCTTCTGGG test_result=0.738
chain_sequence=TCCATCAGCACTGCCAGCCGGC test_result=-1.21
chain_sequence=TTGGAGAGAGTCCACAACCGCC test_result=-1.23
chain_sequence=ATCATCGCTGTCCAGGTCCGAG test_result=-1.37
